The reader will find reported growth inhibition values listed item by item below.
experiment: NCI Yeast Anticancer Drug Screen. Data for the sgs1 mgt1 strain (AID 161);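 note: 0% = growth of cultures given vehicle only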; conditions: S. cerevisiae sgs1 mgt1 strain, at 50.0 µM, hits give high values
The panel holds about 79,000 compounds, 15% with a hit somewhere; the sample as a whole holds those more often.
assay_readout: growth inhibition (%)

INSERT INTO measurements (compound, u, observed_result) VALUES
  ('Cc1cc(=O)[nH]c2cc(NN)ccc12', '%', 4.85),
  ('Cc1ccc(S(=O)(=O)Oc2cccc(C)c2)cc1', '%', 23),
  ('NCc1c(Cl)c(Cl)c(Cl)c(CN)c1Cl', '%', 14.1),
  ('Cc1nc2ccccc2nc1CC(=O)c1ccccc1', '%', 48),
  ('COc1ccc(C2N(C(C#N)c3ccccc3OC)CCCN2C(C#N)c2ccccc2OC)c(OC)c1 (stereo not drawn)', '%', 30.3),
  ('O=C1CC2CCCCC2CC1c1ccccc1 (stereo not drawn)', '%', -4.55),
  ('C[N+]1(CC(O)C[N+]2(C)CCCCCC2)CCCCCC1', '%', -7.65),
  ('CCOCCCN', '%', 6.85),
  ('CC1=CC2(C)Cc3cc(C)cc(C)c3S(=O)(=O)C2C(C(=O)O)=C1 (stereo not drawn)', '%', -13.9),
  ('CCOc1ccc(OCC)c(NC(C)=O)c1', '%', 3.95),
  ('O=C(OCCN=C1c2ccccc2CCc2ccccc21)c1ccccc1', '%', 18.9),
  ('O=C1c2ccccc2C(=O)N1CC(F)(F)F', '%', -9.5),
  ('CC1C2CC(CC2(C)O)C1(C)C (stereo not drawn)', '%', 3.35);

====

Experiment: NCI Yeast Anticancer Drug Screen. Data for the mlh1 rad18 strain (AID 175)
Conditions: S. cerevisiae mlh1 rad18 strain growth inhibition; at 50.0 µM; hits give high values
Description: Growth inhibition of yeast strains with defined genetic alterations is measured as a screen for potential anti-cancer activity. Selected strains with alterations in DNA damage repair or cell cycle control were exposed to compounds and growth inhibition was measured relative to vehicle treated controls. The strain used in this assay is mlh1 rad18
The panel holds about 79,000 compounds, 15% with a hit somewhere; the sample as a whole holds those more often.
Some compounds, each annotated with its measured growth inhibition.
assay_readout: growth inhibition (%)

INSERT INTO assay_data (compound, observed_result) VALUES
  ('O=S1(=O)CCC(Br)c2ccccc2C1 (stereo not given)', -5.4),
  ('COc1cc2c(oc(=O)c3c4occc4cc(OC)c23)c2cccc(O)c12', -56.2),
  ('O=c1cc(NCc2cccc([N+](=O)[O-])c2)[nH]c(=O)[nH]1', 6.6),
  ('c1ccc(C2=NC3(CCCCC3)N=C2c2ccccc2)cc1', 25.1),
  ('Cc1ccc2c(c1)SCc1c-2[nH]c2ccccc12', 92.8),
  ('CN(Cc1ccccc1)C(OCc1ccccc1)c1ccccc1 (stereo not given)', 5.4),
  ('COc1ccc(CCC(O)c2ccccc2)cc1 (stereo not given)', 16.1),
  ('C[C@@H]1C[C@H]2[C@@H]3CCC4=CC(=O)C=C[C@]4(C)[C@@]3(F)[C@@H](O)C[C@]2(C)[C@@]1(O)C(=O)CO', 28.1),
  ('CSC(=N\N=C(/C)c1ccc(Br)cc1)/N=C/N(C)C', 31.7),
  ('OC1(C2(O)CCCCC2)CCCCC1', 3.75),
  ('O=S(=O)(Cc1c(Cl)c(Cl)c(Cl)c(Cl)c1Cl)c1ccc(Cl)cc1', -2.4),
  ('N#CC(C(=O)C(N)=O)c1nc2ccccc2s1 (stereo not given)', 2.25),
  ('O=C(Nc1ccccc1O)c1ccc(Cl)c(Cl)c1', 36.2),
  ('CCCCC(C(=O)O)C1CCCCC1 (stereo not given)', -1),
  ('CCCCOC(=O)OCCOCCOC(=O)OCCCC', 0.35),
  ('CN(CC(=O)O)Cc1ccccc1', 3.3),
  ('CS(=O)(=O)Nc1ccc(NS(C)(=O)=O)cc1', -13.2),
  ('O=C1C(c2ccccc2)=C(c2ccccc2)/C1=C\c1ccc(Cl)cc1Cl', -13.8),
  ('Cc1nc2ccccc2nc1CC(O)(c1ccccc1)c1cccc2ccccc12 (stereo not given)', 38.4),
  ('Cc1cc(CC#N)c(CC#N)cc1C', 3.95),
  ('COC(=O)[C@@H]1CON(Cc2ccccc2)C1CC1(C)OCCO1 (stereo not given in full)', 8.45),
  ('N#CCC(=O)c1ccc(N)cc1', 13.4),
  ('CNS(=O)(=O)c1ccc(Br)cc1', -12.4),
  ('O=C(Nc1ccc(Cl)cc1)OCC#CCOC(=O)Nc1ccc(Cl)cc1', 2.1),
  ('C[C@@H]1CN(c2ccccc2)C[C@H](C)OS(=O)O1 (stereo not given in full)', -0.7);
